The reported numbers originate from paper PMC10726358.

Molecular target: BAZ2A (Homo sapiens, UniProt Q9UIF9)
Construct: ≥2000-fold selectivity over all 20 non-BET bromodomains tested
Sequence (Q9UIF9 1793-1897 limits assumed): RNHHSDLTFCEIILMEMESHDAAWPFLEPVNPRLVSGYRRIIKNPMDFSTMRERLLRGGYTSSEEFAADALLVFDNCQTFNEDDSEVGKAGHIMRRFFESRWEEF
Experiment: BROMOscan BAZ2A
pKd: −log10 of the molar value.
Parameter: pKd

The observed pKd for "Cc1cc(-c2nc3ccccc3n2C[C@@H]2CCCN(C(=O)C3CCN(C(C)C)CC3)C2)cn(C)c1=O" when tested with BAZ2A (Homo sapiens, UniProt Q9UIF9) stands at < 4.50

----------
Please go through the items and note down their IC50.
Tested on: MCP-1
Experiment: LPS-stimulated human whole blood (hWB) MCP-1 release assay
Type: cell-based
Settings: LPS-stimulated human whole blood; read-out: hWB MCP-1 pIC50 (converted)
One number for each entry, in nM.

Illustrative cases are given below, each with its answer.
- Molecule: "Cc1cc(-c2nc3ccccc3n2C[C@@H]2CCCN(C(=O)[C@H]3CCNC3)C2)cn(C)c1=O [Compound 24]"
  IC50 (nM): 1000
- Molecule: "CC(=O)N1CCC(C(=O)N2CCC[C@@H](Cn3c(-c4cc(C)c(=O)n(C)c4)nc4ccccc43)C2)CC1 [Compound 33]"
  IC50 (nM): 2000
- Molecule: "Cc1cc(-c2nc3ccccc3n2C[C@@H]2CCCN(C(=O)C3CNC3)C2)cn(C)c1=O [Compound 22]"
  IC50 (nM): 631
- Molecule: "Cc1cc(-c2nc3ccccc3n2C[C@@H]2CCCN(C(=O)C3CCN(CCF)CC3)C2)cn(C)c1=O [Compound 34]"
  IC50 (nM): 63.1
- Molecule: "Cc1cc(-c2nc3ccccc3n2C[C@@H]2CCCN(C(=O)CCCN)C2)cn(C)c1=O [Compound 21]"
  IC50 (nM): 501
- Molecule: "Cc1cc(-c2nc3ccccc3n2C[C@@H]2CCCN(C(=O)C3CCOCC3)C2)cn(C)c1=O [Compound 32]"
  IC50 (nM): 794
- Molecule: "Cc1cc(-c2nc3ccccc3n2C[C@@H]2CCCN(C(=O)[C@H]3C[C@H](N)C3)C2)cn(C)c1=O [Compound 23]"
  IC50 (nM): 200

The observed IC50 for Cc1cc(-c2nc3ccccc3n2C[C@@H]2CCCN(C(=O)C3CCNCC3)C2)cn(C)c1=O [Compound 27] when tested with MCP-1 stands at 1000

----------
Experiment: CAD aqueous solubility
Parameter: solubility

- Compound: "Cc1cc(-c2nc3ccccc3n2C[C@@H]2CCCN(C(=O)C3CCN(CCF)CC3)C2)cn(C)c1=O"
  Result: "≥ 207 µg/mL"
- Compound: "Cc1cc(-c2nc3ccccc3n2C[C@@H]2CCCN(C(=O)C3CCN(CC(F)F)CC3)C2)cn(C)c1=O"
  Result: "≥ 279 µg/mL"

For each listed entry, give its solubility.
1. CC(=O)N1CCC(C(=O)N2CCC[C@@H](Cn3c(-c4cc(C)c(=O)n(C)c4)nc4ccccc43)C2)CC1
2. Cc1cc(-c2nc3ccccc3n2C[C@@H]2CCCN(C(=O)[C@H]3C[C@H](N)C3)C2)cn(C)c1=O
3. Cc1cc(-c2nc3ccccc3n2C[C@@H]2CCCN(C(=O)C3CCN(CC(F)(F)F)CC3)C2)cn(C)c1=O
4. Cc1cc(-c2nc3ccccc3n2C[C@@H]2CCCN(C(=O)[C@H]3CC[C@H](N)C3)C2)cn(C)c1=O
5. Cc1cc(-c2nc3ccccc3n2C[C@@H]2CCCN(C(=O)C3CCN(C)CC3)C2)cn(C)c1=O

1. ≥ 205 µg/mL
2. ≥ 230 µg/mL
3. ≥ 201 µg/mL
4. ≥ 157 µg/mL
5. ≥ 237 µg/mL

For each listed entry, give its solubility.
1. Cc1cc(-c2nc3ccccc3n2C[C@@H]2CCCN(C(=O)C3CCNCC3)C2)cn(C)c1=O
2. Cc1cc(-c2nc3ccccc3n2C[C@@H]2CCCN(C(=O)[C@H]3CCNC3)C2)cn(C)c1=O
3. Cc1cc(-c2nc3ccccc3n2C[C@@H]2CCCN(C(=O)C3CCC(N)CC3)C2)cn(C)c1=O (stereo in doubt)
4. Cc1cc(-c2nc3ccccc3n2C[C@@H]2CCCN(C(=O)C3CCN(C(C)C)CC3)C2)cn(C)c1=O
5. Cc1cc(-c2nc3ccccc3n2C[C@@H]2CCCN(C(=O)C3CCCN(C)C3)C2)cn(C)c1=O (stereo partly drawn)

1. ≥ 215 µg/mL
2. ≥ 208 µg/mL
3. ≥ 155 µg/mL
4. ≥ 257 µg/mL
5. ≥ 204 µg/mL
